target.system: T1, human GREM1 (hGREM1-His; SEQ ID NO: 595) (human, UniProt O60565 25-184)
T1 construct: also called biotin-hGREM1-His; recombinant human GREM1 protein
T1 sequence: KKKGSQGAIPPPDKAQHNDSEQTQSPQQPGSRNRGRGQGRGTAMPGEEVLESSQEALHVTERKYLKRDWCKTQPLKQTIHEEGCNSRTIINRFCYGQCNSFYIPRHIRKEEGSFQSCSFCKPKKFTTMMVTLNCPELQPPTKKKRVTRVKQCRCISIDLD
assay.overview: SPR, Biacore T200, 25 C, mAb captured, hGREM1-His injected;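 further: Heparin-supplemented HBS-EP+ used as running buffer, association and dissociation phases followed, Kd computed as koff divided by kon and half-life derived from koff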
recorded.metric: koff

{"binder": "H4H6232P (antibody, human IgG4, V domains shown, H4H prefix = human IgG4 Fc) VH: QVQLVQSGAEVKKPGASVKVSCKVSGYTLTELSMHWVRQAPGKGLEWMGGFDPEDGETIYAQKFQGRLTMTEDTSTDTAYMELSSLRSEDTAVYYCATDDYDILTSYPYNMDVWGQGTTVTVSS VL: DIQMTQSPSSLSASVGDRVTITCRASQSINNYLNWYQQKPGKAPKLLIYAASSLQSGVPSRFSGSGSGTDFTLTISSLQPEDFGTYYCQQSDSTPFTFGPGTKVDIK", "observed": "9.6e-05 s⁻¹"}
{"binder": "H4H6269P (antibody, human IgG4, V domains shown, H4H prefix = human IgG4 Fc) VH: QVQLQESGPGLVKPSQTLSLTCTVSGGSISSGGYYWTWIRQHPGKGLEWIGYIYYSGSTYYNPSLKSRVTMSVDTSKNQFSLKLSSVTAADTAVYYCARLLDFDYWGQGTLVTVSS VL: AIQMTQSPSSLSASVGDRVTITCRASQGIRNDLGWYQQKPGKAPKLLIYAASSLQSGVPSRFSGSGSGRDFTLTISSLQPEDFASYYCLQDHNYPLTFGGGTKVEIK", "observed": "6.32e-05 s⁻¹"}
{"binder": "H4H6240P (antibody, human IgG4, V domains shown, H4H prefix = human IgG4 Fc) VH: QVQLVESGGGVVQPGRSLRLSCAASGFTFSSYGMHWVRQAPGKGLEWVAVIWYDGSNKYYADSVKGRFIISRDNSKNMMYLQMNSLRAEDTAVYYCAREDNWNYAFDYWGQGTLVTVSS VL: EIVMTQSPATLSVSPGERATLSCRASQSISSNLAWYQQKPGQAPRLLIYDSSTRATGIPARFSGSGSGTQFTLTISSLQSEDFALYYCQQYSNWPPFTFGPGTKVDIK", "observed": "0.000319 s⁻¹"}
